- assay.remarks: self-splicing fitness, log relative to wild type (ln ratio); higher = more splicing; Tetrahymena group I intron in knt gene, E. coli kanamycin selection, DiMSum; sequences stand for … in CUCUCU…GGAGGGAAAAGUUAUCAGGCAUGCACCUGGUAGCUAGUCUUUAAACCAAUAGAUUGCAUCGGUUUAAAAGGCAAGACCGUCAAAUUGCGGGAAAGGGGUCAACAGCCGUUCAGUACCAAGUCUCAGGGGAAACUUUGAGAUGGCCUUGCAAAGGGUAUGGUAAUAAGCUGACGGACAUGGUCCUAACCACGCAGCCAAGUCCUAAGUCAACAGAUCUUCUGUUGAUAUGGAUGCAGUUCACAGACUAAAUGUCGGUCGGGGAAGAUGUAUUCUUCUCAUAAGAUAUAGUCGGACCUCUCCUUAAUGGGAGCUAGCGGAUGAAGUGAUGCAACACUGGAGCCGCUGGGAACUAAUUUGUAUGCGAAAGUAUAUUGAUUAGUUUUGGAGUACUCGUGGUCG;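 further: selection with 25 µg/mL kanamycin versus none on LB agar overnight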
- experimental.context: 30 °C
Give Met when the value for self-splicing fitness (ln) is at least -2. Give Not met when it is less.

query: Hi team, for UAUAAGCAAUAUUACGUAUU , is the recorded self-splicing fitness (ln) at or above -2?
result: Not met

query: Hi team, for GUACAGCAAUAUUACGGGUA , is the recorded self-splicing fitness (ln) at or above -2?
result: Not met

query: Hi team, for CAGCAGCAAUAUUACGUCCA , is the recorded self-splicing fitness (ln) at or above -2?
result: Not met

query: Hi team, for GGUCAGCAAUAUUACGGACA , is the recorded self-splicing fitness (ln) at or above -2?
result: Met

query: Hi team, for GGGCAGCAAUAUUACGAACC , is the recorded self-splicing fitness (ln) at or above -2?
result: Met

----------
Give measured self-splicing fitness (ln) for each item. Keep answers brief.
- assay.remarks: self-splicing fitness, log relative to wild type (ln ratio); higher = more splicing; Tetrahymena group I intron in knt gene, E. coli kanamycin selection, DiMSum; sequences stand for … in CUCUCU…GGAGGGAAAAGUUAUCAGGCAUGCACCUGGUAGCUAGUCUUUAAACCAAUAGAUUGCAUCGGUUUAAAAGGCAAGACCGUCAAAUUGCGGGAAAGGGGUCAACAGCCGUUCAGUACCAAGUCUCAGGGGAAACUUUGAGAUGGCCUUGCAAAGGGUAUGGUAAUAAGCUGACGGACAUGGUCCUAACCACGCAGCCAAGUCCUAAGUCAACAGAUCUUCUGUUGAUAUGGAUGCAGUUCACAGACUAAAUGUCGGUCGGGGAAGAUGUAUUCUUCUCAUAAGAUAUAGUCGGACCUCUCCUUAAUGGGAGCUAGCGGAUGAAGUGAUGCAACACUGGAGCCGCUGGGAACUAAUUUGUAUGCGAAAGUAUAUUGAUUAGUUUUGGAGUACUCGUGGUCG
- experimental.context: 37 °C
One number for each entry.

Give me self-splicing fitness (ln) for each of these sequences, listed below.
1. AGUUAGCAAUAUUACGUGCC
2. UAGUAGCAAUAUUACGUUUC
3. UCUCAGCAAUAUUACGAGCA
4. GGAUAGCAAUAUUACGAUCA
5. AAUCAGCAAUAUUACGUCUA

result:
[-0.145, -1.5, 0.222, 0.227, -0.133]

Give me self-splicing fitness (ln) for each of these sequences, listed below.
1. AAGCAGCAAUAUUACGGGCC
2. ACGAAGCAAUAUUACGUAGG
3. UGUCAGCAAUAUUACGAAAG
4. AACAAGCAAUAUUACGGACG
5. UGCAAGCAAUAUUACGCCAG
6. UAGGAGCAAUAUUACGAGAA
7. AACUAGCAAUAUUACGUUAG

result:
-1.53
-1.43
-1.21
-0.887
-1.9
-2.68
-3.33

Give me self-splicing fitness (ln) for each of these sequences, listed below.
1. GGAUAGCAAUAUUACGGAUC
2. UGCGAGCAAUAUUACGGUUA
3. ACGUAGCAAUAUUACGGCAU
4. CGUGAGCAAUAUUACGCAGA

result:
-0.269
-0.443
-0.11
-1.49

----------
- assay.remarks: self-splicing fitness, log relative to wild type (ln ratio); higher = more splicing; Tetrahymena group I intron in knt gene, E. coli kanamycin selection, DiMSum; sequences stand for … in CUCUCU…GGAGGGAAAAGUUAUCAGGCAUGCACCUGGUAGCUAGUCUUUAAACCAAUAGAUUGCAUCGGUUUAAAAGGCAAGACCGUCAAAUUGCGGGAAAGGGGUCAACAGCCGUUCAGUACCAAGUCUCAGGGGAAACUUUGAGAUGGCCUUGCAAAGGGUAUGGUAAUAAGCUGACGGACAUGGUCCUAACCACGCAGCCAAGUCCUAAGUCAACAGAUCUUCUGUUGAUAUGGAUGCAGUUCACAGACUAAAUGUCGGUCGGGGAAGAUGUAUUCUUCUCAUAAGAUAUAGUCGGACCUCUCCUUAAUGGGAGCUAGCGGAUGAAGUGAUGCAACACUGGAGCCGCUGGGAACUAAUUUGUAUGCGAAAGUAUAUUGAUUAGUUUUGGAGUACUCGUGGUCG
- experimental.context: 30 °C
Give measured self-splicing fitness (ln) for each item. Keep answers brief.

1. CUUUAGCAAUAUUACGGGAA: -2.28

Give me self-splicing fitness (ln) for each of these sequences, listed below.
1. AUAUAGCAAUAUUACGAAGU
2. UGUCAGCAAUAUUACGGCAG
3. UUCCAGCAAUAUUACGAUUC
4. CGCGAGCAAUAUUACGCCAC
5. AGGCAGCAAUAUUACGGCCG
6. AUCUAGCAAUAUUACGAGAU
7. AACUAGCAAUAUUACGCGGC

result:
-3.37
-1.55
-1.5
-3.41
-1.12
-2.88
-3.01

Give me self-splicing fitness (ln) for each of these sequences, listed below.
1. UGACAGCAAUAUUACGUGUU
2. AUAUAGCAAUAUUACGACGG
3. ACUUAGCAAUAUUACGUUAC
4. UUUCAGCAAUAUUACGAUUA
5. GAACAGCAAUAUUACGAAUG
6. GGCGAGCAAUAUUACGGGAA
7. UGCAAGCAAUAUUACGAUGC

result:
-4.32
-2.5
-3.55
0.327
-2.42
-2.55
-3.55

Give me self-splicing fitness (ln) for each of these sequences, listed below.
1. GUGAAGCAAUAUUACGUUAU
2. ACUCAGCAAUAUUACGAUGG

result:
-1.15
-1.1

Give me self-splicing fitness (ln) for each of these sequences, listed below.
1. GAUGAGCAAUAUUACGUACU
2. AGUCAGCAAUAUUACGGAGG
3. GAUAAGCAAUAUUACGGACC
4. CUCCAGCAAUAUUACGGGGG
5. AUCGAGCAAUAUUACGUCGA
6. UCACAGCAAUAUUACGGCUA
7. GUCGAGCAAUAUUACGUGGC

result:
-1.85
-2.93
-1.24
-3.56
-2.83
-1.64
-3.63

----------
- assay.remarks: self-splicing fitness, log relative to wild type (ln ratio); higher = more splicing; Tetrahymena group I intron in knt gene, E. coli kanamycin selection, DiMSum; sequences stand for … in CUCUCU…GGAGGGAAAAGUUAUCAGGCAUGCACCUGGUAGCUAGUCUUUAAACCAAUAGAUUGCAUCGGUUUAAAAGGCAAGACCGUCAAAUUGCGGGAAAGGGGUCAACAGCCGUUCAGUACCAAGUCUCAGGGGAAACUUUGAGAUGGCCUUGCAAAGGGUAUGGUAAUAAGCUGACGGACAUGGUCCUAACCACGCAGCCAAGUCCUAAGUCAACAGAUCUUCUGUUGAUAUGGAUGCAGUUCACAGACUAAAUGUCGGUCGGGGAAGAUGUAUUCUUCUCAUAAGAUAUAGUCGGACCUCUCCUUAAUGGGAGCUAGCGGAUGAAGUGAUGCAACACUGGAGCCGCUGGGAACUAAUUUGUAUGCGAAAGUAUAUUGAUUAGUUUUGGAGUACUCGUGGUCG
- experimental.context: 30 °C
readout.name: self-splicing fitness (ln)
Give bare numbers.

Examples from the recorded data:
1. AUAAAGCAAUAUUACGUCAG: -1.6
2. GCAUAGCAAUAUUACGGUUG: -2.82
3. AAAAAGCAAUAUUACGCUCG: -0.161
4. GGGGAGCAAUAUUACGUGCG: -1.61
5. UAUAAGCAAUAUUACGGAAC: -4.02
6. UGGUAGCAAUAUUACGAAGA: -1.45
7. AGACAGCAAUAUUACGGGGU: -3.82
8. GCCAAGCAAUAUUACGAUAU: -2.75

Give me self-splicing fitness (ln) for each of these sequences, listed below.
1. ACUGAGCAAUAUUACGACCA
2. GACUAGCAAUAUUACGGUAA
3. GGGCAGCAAUAUUACGGUUU
4. GAUCAGCAAUAUUACGCUUC
5. CAAGAGCAAUAUUACGGUGA

result:
[-2.57, -0.126, -0.465, -3.16, -3.01]
